molecular target: T1, Human Galectin-3 protein (Acro Biosystems, GA3-H5129) (human, UniProt P17931 2-250); assay: ELISA, INSR binding to coated Gal3 with 3 ug/mL antibody
T1 construct: bought; also called Gal3-ECD-His; Gal3-His; not shown: linker-spaced 6-histidine tag
T1 sequence (P17931 2-250): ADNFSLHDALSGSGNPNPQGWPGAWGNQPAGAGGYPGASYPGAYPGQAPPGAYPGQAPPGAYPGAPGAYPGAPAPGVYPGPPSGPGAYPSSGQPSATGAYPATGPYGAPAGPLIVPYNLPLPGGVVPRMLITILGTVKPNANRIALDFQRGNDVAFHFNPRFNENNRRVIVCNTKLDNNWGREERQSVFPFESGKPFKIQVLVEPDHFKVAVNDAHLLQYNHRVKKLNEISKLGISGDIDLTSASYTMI
reported.endpoint: inhibition of Gal3-INSR binding, %

Q: Any idea what inhibition of Gal3-INSR binding, % was measured for 24D12.2H9 (antibody, V domains shown) VH: QVQLKQSGPGLVQPSQSLSITCTVSGFSLTSYGVHWVRQAPGKGLEWLGVIWSGGSTDYNAAFMSRLSISKDNSKSQVFFKMNSLQADDTAIYYCAKSPDGYDVAWFGYWGQGTLVTVSA VL: DIVMTQSHKFMSTSVGDRVSITCKASQDVRTAVAWYQQKPGQSPKLLIYWASTRHTGVPDRFTGSGSGTDFTLTLSNVQSEDLADYFCQQYSSYPWTFGGGTKLEIKR ?
Ans: ≤ 30%

Q: Dear colleague, I am looking for the recorded inhibition of Gal3-INSR binding, % of the following binder: 15G7.2A7 (antibody, V domains shown) VH: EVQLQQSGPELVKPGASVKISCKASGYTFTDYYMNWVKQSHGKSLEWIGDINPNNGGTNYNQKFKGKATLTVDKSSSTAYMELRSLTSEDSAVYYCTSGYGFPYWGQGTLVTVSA VL: DIQMNQSPSSLSASLGDTISITCRASQNINIWLSWYQQKPGNIPQLLIYKASNLHTGVPSRFSGSGSGTDFTLTISSLQPEDIATYYCLQGQSYPLTFGAGTKLVMKR
Ans: > 99%

Q: Give its inhibition of Gal3-INSR binding, % value. Item: 9H2.2H10 (antibody, V domains shown) VH: QVQLQQPGAELVGPGSSVKLSCKASGYTFTNYWIHWVKQRPLQGLEWIGNIDPSDSETHYNQKFKDKATLTVDKSSSTAYMQLSSLTSEDSAVYYCARHGYYDYWGQGTTLTVSS VL: DIVMTQSHKFMSTSVGDRVSITCKASQDVSTAVAWYQQKPGQSPKLLIYWASTRHTGVPDRFTGSGSGTDYTLTISSVQAEDLALYYCQQHYTTPLTFGAGTKLELKR
Ans: ≤ 30%
